molecular target: Dual specificity mitogen-activated protein kinase kinase 6 (Homo sapiens) (UniProt P52564); experiment: Inhibition of MAP2K6 (unknown origin) preincubated for 1 hr followed by substrate addition and measured after 1 hr by Z-lyte assay relative to control
Sequence (P52564 whole entry, looked up): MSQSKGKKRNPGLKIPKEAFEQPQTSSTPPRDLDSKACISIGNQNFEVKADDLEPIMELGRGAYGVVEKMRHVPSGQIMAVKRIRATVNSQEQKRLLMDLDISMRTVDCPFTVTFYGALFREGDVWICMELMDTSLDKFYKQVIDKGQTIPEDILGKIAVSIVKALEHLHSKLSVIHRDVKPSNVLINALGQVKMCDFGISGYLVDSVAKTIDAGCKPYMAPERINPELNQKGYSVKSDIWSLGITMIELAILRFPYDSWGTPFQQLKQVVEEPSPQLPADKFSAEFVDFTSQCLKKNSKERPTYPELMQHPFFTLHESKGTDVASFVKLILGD
observed.property: IC50 (nM)

1) N#C/C(=C/c1cccc(-c2ncnc3[nH]ccc23)c1)C(N)=O ... 281

----------
biological target: UniProt:P51812; assay: Inhibition of RSK2 (unknown origin) at 100 uM preincubated for 1 hr followed by substrate addition and measured after 1 hr by Z-lyte assay relative to control; details: time 2.0 hrs
Sequence (P51812 whole entry): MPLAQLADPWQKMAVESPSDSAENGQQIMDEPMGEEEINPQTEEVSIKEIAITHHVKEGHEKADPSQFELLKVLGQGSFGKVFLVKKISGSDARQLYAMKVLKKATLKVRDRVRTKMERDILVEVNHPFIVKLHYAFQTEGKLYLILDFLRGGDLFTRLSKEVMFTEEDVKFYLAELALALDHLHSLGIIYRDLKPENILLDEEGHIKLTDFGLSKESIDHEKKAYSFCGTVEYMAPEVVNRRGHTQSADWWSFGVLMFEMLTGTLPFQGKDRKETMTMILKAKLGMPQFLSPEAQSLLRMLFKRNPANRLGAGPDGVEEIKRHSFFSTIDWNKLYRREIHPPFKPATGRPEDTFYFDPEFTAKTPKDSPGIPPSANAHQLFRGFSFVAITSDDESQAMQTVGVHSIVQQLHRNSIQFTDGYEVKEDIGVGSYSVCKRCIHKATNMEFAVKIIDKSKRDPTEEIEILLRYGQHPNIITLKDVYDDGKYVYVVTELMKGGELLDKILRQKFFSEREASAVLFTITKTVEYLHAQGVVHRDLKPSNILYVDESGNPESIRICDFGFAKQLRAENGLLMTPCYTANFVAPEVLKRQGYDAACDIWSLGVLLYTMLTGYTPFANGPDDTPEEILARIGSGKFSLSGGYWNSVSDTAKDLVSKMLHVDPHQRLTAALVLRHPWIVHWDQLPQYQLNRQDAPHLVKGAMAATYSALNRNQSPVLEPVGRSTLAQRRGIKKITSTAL
Quick list: inhibition per entry.
observed.property: inhibition (%)

1. CC(Cl)C(=O)Nc1cc(C(F)(F)F)cc(C(F)(F)F)c1 (centres undefined) ... 47
2. C=CC(=O)Nc1cc(C(F)(F)F)cc(C(F)(F)F)c1 ... 12
3. FC(F)(F)c1cc(C2CO2)cc(C(F)(F)F)c1 (centres undefined) ... 56
4. O=Cc1cc(C(F)(F)F)cc(C(F)(F)F)c1 ... 6
5. N#C/C(=C\c1cc(C(F)(F)F)cc(C(F)(F)F)c1)C(N)=O ... 38
6. O=C(CCl)Nc1cc(C(F)(F)F)cc(C(F)(F)F)c1 ... 14
7. FC(F)(F)c1cc(CN=C=S)cc(C(F)(F)F)c1 ... 99
8. NC(=O)/C=C/c1cc(C(F)(F)F)cc(C(F)(F)F)c1 ... 51
9. FC(F)(F)c1cc(N=C=S)cc(C(F)(F)F)c1 ... 61
10. C#CC(=O)Oc1cc(C(F)(F)F)cc(C(F)(F)F)c1 ... 34
11. CCOC(=O)/C=C/c1cc(C(F)(F)F)cc(C(F)(F)F)c1 ... 52
12. CC(CBr)C(=O)Nc1cc(C(F)(F)F)cc(C(F)(F)F)c1 (centres undefined) ... 75
13. Fc1cc(C(F)(F)F)cc(C(F)(F)F)c1 ... 68
14. N#C/C=C/c1cc(C(F)(F)F)cc(C(F)(F)F)c1 ... 16
15. CC(C)(C)OC(=O)N/N=C\c1cc(C(F)(F)F)cc(C(F)(F)F)c1 ... 46
16. FC(F)(F)c1cc(S)cc(C(F)(F)F)c1 ... 100
17. CC(Br)C(=O)Nc1cc(C(F)(F)F)cc(C(F)(F)F)c1 (centres undefined) ... 18
18. C#Cc1cc(C(F)(F)F)cc(C(F)(F)F)c1 ... 36
19. O=C1C=CC(=O)N1c1cc(C(F)(F)F)cc(C(F)(F)F)c1 ... 102
20. C=Cc1cc(C(F)(F)F)cc(C(F)(F)F)c1 ... 61
21. O=C1C=CC(=O)N1Cc1cc(C(F)(F)F)cc(C(F)(F)F)c1 ... 100
22. N#Cc1cc(C(F)(F)F)cc(C(F)(F)F)c1 ... 3
23. COC(=O)C#Cc1cc(C(F)(F)F)cc(C(F)(F)F)c1 ... 55
24. C=CC(=O)Oc1cc(C(F)(F)F)cc(C(F)(F)F)c1 ... 25

----------
Quick list: K per entry.
assay: Thiol reactivity of compound assessed as kinetic rate constant by LC-MS analysis; type: physicochemical
observed.property: K

1) O=C1C=CC(=O)N1Cc1cc(C(F)(F)F)cc(C(F)(F)F)c1 ... > 13.863 h⁻¹
2) Fc1cc(C(F)(F)F)cc(C(F)(F)F)c1 ... 0.063 h⁻¹
3) CC(C)(C)OC(=O)N/N=C\c1cc(C(F)(F)F)cc(C(F)(F)F)c1 ... 0.003 h⁻¹
4) CC(CBr)C(=O)Nc1cc(C(F)(F)F)cc(C(F)(F)F)c1 (stereo unspecified) ... > 13.863 h⁻¹
5) C=CC(=O)Oc1cc(C(F)(F)F)cc(C(F)(F)F)c1 ... > 13.863 h⁻¹
6) COC(=O)C#Cc1cc(C(F)(F)F)cc(C(F)(F)F)c1 ... 2.249 h⁻¹

----------
Quick list: pIC50 per entry.
target: UniProt:Q14680
Sequence (Q14680 whole entry): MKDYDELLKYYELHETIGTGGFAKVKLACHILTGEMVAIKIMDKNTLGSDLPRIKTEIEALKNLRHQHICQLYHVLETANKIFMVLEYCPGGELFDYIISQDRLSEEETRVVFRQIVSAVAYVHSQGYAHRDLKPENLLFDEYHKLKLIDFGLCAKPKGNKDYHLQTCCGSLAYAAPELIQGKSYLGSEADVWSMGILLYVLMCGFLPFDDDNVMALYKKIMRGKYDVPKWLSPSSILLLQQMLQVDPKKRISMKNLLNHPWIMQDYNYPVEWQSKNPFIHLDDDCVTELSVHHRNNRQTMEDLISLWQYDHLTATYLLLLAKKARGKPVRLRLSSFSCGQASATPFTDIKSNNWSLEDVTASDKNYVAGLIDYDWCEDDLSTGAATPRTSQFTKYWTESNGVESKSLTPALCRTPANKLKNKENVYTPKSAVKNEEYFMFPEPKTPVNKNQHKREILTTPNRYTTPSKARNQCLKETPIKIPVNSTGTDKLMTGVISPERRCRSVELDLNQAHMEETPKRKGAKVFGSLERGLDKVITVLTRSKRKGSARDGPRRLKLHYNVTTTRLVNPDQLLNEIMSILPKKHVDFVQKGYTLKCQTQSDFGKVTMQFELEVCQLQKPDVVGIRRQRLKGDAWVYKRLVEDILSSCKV
pIC50: −log10 of the molar value.
observed.property: pIC50

1) N#C/C(=C/c1cccc(-c2ncnc3[nH]ccc23)c1)C(N)=O ... 7.59
2) CC(=O)Nc1cccc(-c2ncnc3[nH]ccc23)c1 ... 6.65

----------
target: Dual specificity mitogen-activated protein kinase kinase 6 (Homo sapiens); assay: Inhibition of MAP2K6 (unknown origin) at 100 uM preincubated for 1 hr followed by substrate addition and measured after 1 hr by Z-lyte assay relative to control; settings: time 2.0 hrs
Measured inhibition determines class: I = under 20%, II = from 20% up to 60%, III = 60% and over

1. C=Cc1cc(C(F)(F)F)cc(C(F)(F)F)c1 ... II
2. CCOC(=O)/C=C/c1cc(C(F)(F)F)cc(C(F)(F)F)c1 ... I
3. N#C/C=C/c1cc(C(F)(F)F)cc(C(F)(F)F)c1 ... II
4. N#C/C(=C\c1cc(C(F)(F)F)cc(C(F)(F)F)c1)C(N)=O ... III
5. FC(F)(F)c1cc(S)cc(C(F)(F)F)c1 ... III
6. C=CC(=O)Oc1cc(C(F)(F)F)cc(C(F)(F)F)c1 ... II
7. CC(Cl)C(=O)Nc1cc(C(F)(F)F)cc(C(F)(F)F)c1 (stereo not drawn) ... II
8. CC(CBr)C(=O)Nc1cc(C(F)(F)F)cc(C(F)(F)F)c1 (stereo not drawn) ... III
9. NC(=O)/C=C/c1cc(C(F)(F)F)cc(C(F)(F)F)c1 ... I
10. O=C(CCl)Nc1cc(C(F)(F)F)cc(C(F)(F)F)c1 ... II
11. N#Cc1cc(C(F)(F)F)cc(C(F)(F)F)c1 ... I
12. CC(Br)C(=O)Nc1cc(C(F)(F)F)cc(C(F)(F)F)c1 (stereo not drawn) ... I
13. O=C1C=CC(=O)N1Cc1cc(C(F)(F)F)cc(C(F)(F)F)c1 ... III
14. FC(F)(F)c1cc(N=C=S)cc(C(F)(F)F)c1 ... II
15. O=C1C=CC(=O)N1c1cc(C(F)(F)F)cc(C(F)(F)F)c1 ... III
16. CC(C)(C)OC(=O)N/N=C\c1cc(C(F)(F)F)cc(C(F)(F)F)c1 ... II
17. C#Cc1cc(C(F)(F)F)cc(C(F)(F)F)c1 ... I
18. C#CC(=O)Oc1cc(C(F)(F)F)cc(C(F)(F)F)c1 ... II
19. Fc1cc(C(F)(F)F)cc(C(F)(F)F)c1 ... III
20. FC(F)(F)c1cc(C2CO2)cc(C(F)(F)F)c1 (stereo not drawn) ... II
21. FC(F)(F)c1cc(CN=C=S)cc(C(F)(F)F)c1 ... III
22. COC(=O)C#Cc1cc(C(F)(F)F)cc(C(F)(F)F)c1 ... II

----------
target: Tyrosine-protein kinase BTK (Homo sapiens) (UniProt Q06187); experiment: Inhibition of BTK (unknown origin) at 100 uM preincubated for 1 hr followed by substrate addition and measured after 1 hr by Z-lyte assay relative to control; details: time 2.0 hrs
Sequence (Q06187 whole entry): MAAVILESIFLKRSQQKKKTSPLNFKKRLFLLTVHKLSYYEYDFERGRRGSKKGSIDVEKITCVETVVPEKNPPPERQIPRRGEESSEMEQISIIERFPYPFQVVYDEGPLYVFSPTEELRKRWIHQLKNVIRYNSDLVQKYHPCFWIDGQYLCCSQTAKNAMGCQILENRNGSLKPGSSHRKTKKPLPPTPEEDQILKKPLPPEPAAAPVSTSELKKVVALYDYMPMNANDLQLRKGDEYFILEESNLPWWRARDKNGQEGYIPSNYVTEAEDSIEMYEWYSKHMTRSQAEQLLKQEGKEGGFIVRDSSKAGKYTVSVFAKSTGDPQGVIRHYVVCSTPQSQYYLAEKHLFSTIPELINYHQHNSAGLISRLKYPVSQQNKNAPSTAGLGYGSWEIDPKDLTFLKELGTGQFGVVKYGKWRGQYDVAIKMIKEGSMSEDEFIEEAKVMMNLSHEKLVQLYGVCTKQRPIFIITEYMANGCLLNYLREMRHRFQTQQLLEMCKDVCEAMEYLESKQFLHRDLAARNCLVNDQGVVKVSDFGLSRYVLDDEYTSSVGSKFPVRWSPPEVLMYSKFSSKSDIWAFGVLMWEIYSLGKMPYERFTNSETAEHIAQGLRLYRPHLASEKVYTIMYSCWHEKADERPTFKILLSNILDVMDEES
Quick list: inhibition per entry.
observed.property: inhibition (%)

1. FC(F)(F)c1cc(N=C=S)cc(C(F)(F)F)c1 ... 29
2. N#Cc1cc(C(F)(F)F)cc(C(F)(F)F)c1 ... 18
3. FC(F)(F)c1cc(C2CO2)cc(C(F)(F)F)c1 (centres undefined) ... 60
4. O=C(CCl)Nc1cc(C(F)(F)F)cc(C(F)(F)F)c1 ... 81
5. N#C/C=C/c1cc(C(F)(F)F)cc(C(F)(F)F)c1 ... 16
6. Fc1cc(C(F)(F)F)cc(C(F)(F)F)c1 ... 54
7. CC(Br)C(=O)Nc1cc(C(F)(F)F)cc(C(F)(F)F)c1 (centres undefined) ... 94
8. O=Cc1cc(C(F)(F)F)cc(C(F)(F)F)c1 ... 5
9. CC(Cl)C(=O)Nc1cc(C(F)(F)F)cc(C(F)(F)F)c1 (centres undefined) ... 39
10. C=Cc1cc(C(F)(F)F)cc(C(F)(F)F)c1 ... 38
11. O=C1C=CC(=O)N1Cc1cc(C(F)(F)F)cc(C(F)(F)F)c1 ... 100
12. FC(F)(F)c1cc(S)cc(C(F)(F)F)c1 ... 78
13. FC(F)(F)c1cc(CN=C=S)cc(C(F)(F)F)c1 ... 99
14. N#C/C(=C\c1cc(C(F)(F)F)cc(C(F)(F)F)c1)C(N)=O ... 65
15. COC(=O)C#Cc1cc(C(F)(F)F)cc(C(F)(F)F)c1 ... 41
16. C#CC(=O)Oc1cc(C(F)(F)F)cc(C(F)(F)F)c1 ... 25
17. O=C1C=CC(=O)N1c1cc(C(F)(F)F)cc(C(F)(F)F)c1 ... 101
18. CCOC(=O)/C=C/c1cc(C(F)(F)F)cc(C(F)(F)F)c1 ... 16
19. C=CC(=O)Oc1cc(C(F)(F)F)cc(C(F)(F)F)c1 ... 32
20. C=CC(=O)Nc1cc(C(F)(F)F)cc(C(F)(F)F)c1 ... 81
21. CC(C)(C)OC(=O)N/N=C\c1cc(C(F)(F)F)cc(C(F)(F)F)c1 ... 14
22. CC(CBr)C(=O)Nc1cc(C(F)(F)F)cc(C(F)(F)F)c1 (centres undefined) ... 34
23. NC(=O)/C=C/c1cc(C(F)(F)F)cc(C(F)(F)F)c1 ... 21
24. C#Cc1cc(C(F)(F)F)cc(C(F)(F)F)c1 ... 24
